- test system: Recombinant, human ASM (rASM) (Homo sapiens)
- Sequence (P17405 49-631 T324I/G508R limits assumed): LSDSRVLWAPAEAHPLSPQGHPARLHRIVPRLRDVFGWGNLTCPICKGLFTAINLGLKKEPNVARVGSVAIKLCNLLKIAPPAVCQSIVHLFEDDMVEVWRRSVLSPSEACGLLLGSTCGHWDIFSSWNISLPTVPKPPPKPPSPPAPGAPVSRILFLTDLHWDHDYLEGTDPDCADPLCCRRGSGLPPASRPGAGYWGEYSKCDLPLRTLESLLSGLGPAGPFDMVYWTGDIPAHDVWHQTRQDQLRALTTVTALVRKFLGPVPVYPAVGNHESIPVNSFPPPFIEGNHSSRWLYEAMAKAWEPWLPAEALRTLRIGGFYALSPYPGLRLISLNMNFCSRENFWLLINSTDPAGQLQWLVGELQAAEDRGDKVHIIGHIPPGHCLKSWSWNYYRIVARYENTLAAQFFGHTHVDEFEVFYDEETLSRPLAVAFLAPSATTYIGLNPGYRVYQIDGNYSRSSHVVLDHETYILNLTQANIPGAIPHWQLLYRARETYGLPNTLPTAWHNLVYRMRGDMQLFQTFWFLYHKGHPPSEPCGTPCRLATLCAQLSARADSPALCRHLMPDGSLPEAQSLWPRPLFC
- test description: Inhibition of pure recombinant ASM, BODIPY Sphingomyelin substrate
- Method: Recombinant ASM. In order to determine a non-inhibitory concentration range of D-MAPP that could be used to chaperone ASM, the Ki was determined for purified, wild-type ASM. Recombinant, human ASM (rASM) was purified from the media of overexpressing Chinese Hamster ovary cells by published methods (He et al., Biochim et Biophys Acta. 1999; 1432:251-264). […] Recombinant ASM. The Ki of the sphingomyelin analogue in FIG. 2D was determined for wild-type recombinant ASM as described above for D-MAPP.
pIC50: −log10 of the molar value.
test readout: pIC50

Problem: Would you kindly share the measured pIC50 for CCCCCCCCCCCCCC(=O)N[C@H](C)[C@@H](O)c1ccccc1 ?
Result: > 4.30
